- experimental-protocol: recombinant UMI read abundance after kanamycin selection (control-corrected) (log10(CPM+1)); higher = more efficient recombination; extreme values may be limits of the assay; sequences stand for … in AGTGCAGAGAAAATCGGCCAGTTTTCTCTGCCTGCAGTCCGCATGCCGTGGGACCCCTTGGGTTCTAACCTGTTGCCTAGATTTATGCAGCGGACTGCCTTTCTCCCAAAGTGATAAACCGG…AGGTTGGTTTCACT; site = the 11-nt donor;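 also: IS621 bridge recombinase in Escherichia coli cells against a fixed T5 target plasmid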
Returns Met if the recorded recombinant UMI read abundance (log10) is greater than or equal to 0.9, and Not met otherwise.

Example results:
{"columns": ["polymer-sequence", "assigned-class"],
 "data": [
  ["GGGGCATCATGGACCGGTTTTCCCGGTAATCCGTATTTGCA (site GGGGCACCTTG)", "Not met"],
  ["CCGGTTACATGGACCGGTTTTCCCGGTAATCCGTATTTGCT (site CCGATTACTAG)", "Not met"],
  ["TGGCCGGCATGGACCGGTTTTCCCGGTAATCCGTATTTGGT (site TGGCCGGCTTC)", "Not met"],
  ["AGGGAGTCATGGACCGGTTTTCCCGGTAATCCGTATTTGCC (site TGGGAGTCTGG)", "Met"]
]}

Now examine the next entry.
-- ask Threshold query (recombinant UMI read abundance (log10) >= 0.9) on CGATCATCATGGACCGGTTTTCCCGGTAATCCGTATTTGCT (site TGATCATCTAG)
-- reply Not met

====

Reported values of recombinant UMI read abundance (log10) for individual entries
- experimental-protocol: recombinant UMI read abundance after kanamycin selection (control-corrected) (log10(CPM+1)); higher = more efficient recombination; extreme values may be limits of the assay; sequences stand for … in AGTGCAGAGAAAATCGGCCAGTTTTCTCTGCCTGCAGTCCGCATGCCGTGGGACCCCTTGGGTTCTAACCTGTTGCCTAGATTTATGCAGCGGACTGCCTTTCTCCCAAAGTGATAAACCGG…AGGTTGGTTTCACT; site = the 11-nt donor
The reply should be a number, written without any unit.

Worked cases, recombinant UMI read abundance (log10) given:
{"columns": ["polymer-sequence", "observed-measurement"],
 "data": [
  ["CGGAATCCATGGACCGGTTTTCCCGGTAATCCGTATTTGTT (site CTGAATCCTAA)", 0.0031],
  ["ATTGCGACATGGACCGGTTTTCCCGGTAATCCGTATTTGGT (site ATTGTGACTAC)", 0.225]
]}

-- ask // lookup recombinant UMI read abundance (log10) for TATTGAGCATGGACCGGTTTTCCCGGTAATCCGTATTTGGG (site TACTGAGCTCC)
-- reply 0.0155

-- ask Could you share which recombinant UMI read abundance (log10) value was measured for CGCCCTACATGGACCGGTTTTCCCGGTAATCCGTATTTGAG (site CCCCCTACTCT) ?
-- reply 0.0131

-- ask Given the entry ATCAATACATGGACCGGTTTTCCCGGTAATCCGTATTTGAC (site ATCGATACTGT) , report its measured recombinant UMI read abundance (log10).
-- reply 2.2

-- ask For the sequence CGTTCACCATGGACCGGTTTTCCCGGTAATCCGTATTTGCT (site CGATCATCTAG) , what recombinant UMI read abundance (log10) is on record?
-- reply 0

-- ask Would you kindly share the measured recombinant UMI read abundance (log10) for CCGTTTACATGGACCGGTTTTCCCGGTAATCCGTATTTGCG (site CCGTTTACTGG) ?
-- reply 0

-- ask Which measured recombinant UMI read abundance (log10) value corresponds to CAAGGACCATGGACCGGTTTTCCCGGTAATCCGTATTTGGG (site CAAGGACCTCC) ?
-- reply 0
